Molecular target: BAZ2B bromodomain (Homo sapiens)
Sequence (Q9UIF8 2060-2164 limits assumed): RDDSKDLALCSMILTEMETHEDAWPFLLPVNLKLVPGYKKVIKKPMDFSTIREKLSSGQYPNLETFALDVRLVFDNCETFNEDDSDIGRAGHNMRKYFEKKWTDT
Test: AlphaScreen competition binding assay on the BAZ2B bromodomain
Conditions: AlphaScreen dose-response, Figure S6

- Compound: "CCc1c(-c2csc(N3CCNCC3C(=O)NCCc3ccno3)n2)[nH]c(C)c1C(C)=O (stereo not shown)"
  IC50, µM: 33.5

###

Quick reference for IC50 among some compounds
Target: BAZ2A bromodomain (Homo sapiens, UniProt Q9UIF9)
Sequence (Q9UIF9 1793-1897 limits assumed): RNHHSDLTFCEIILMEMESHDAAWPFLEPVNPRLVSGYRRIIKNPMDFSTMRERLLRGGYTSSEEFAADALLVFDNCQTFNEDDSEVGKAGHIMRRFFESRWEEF
Experiment: AlphaScreen competition binding assay (BAZ2A bromodomain binding to acetylated peptide)
Settings: AlphaScreen dose-response

- Compound: "CC(=O)c1c(C)[nH]c(-c2csc(N3CCNCC3)n2)c1CCC(F)(F)F"
  Relation: "="
  IC50, µM: 38.9
- Compound: "CCc1c(-c2csc(C3COCCN3)n2)[nH]c(C)c1C(C)=O (centres unmarked)"
  Relation: "="
  IC50, µM: 93.5
- Compound: "CCc1c(-c2csc(Cc3ccc(N)cc3)n2)[nH]c(C)c1C(C)=O"
  Relation: ">"
  IC50, µM: 100
- Compound: "CCc1c(-c2csc(N3CCNCC3C(=O)NCCc3ccno3)n2)[nH]c(C)c1C(C)=O (centres unmarked)"
  Relation: "="
  IC50, µM: 4
- Compound: "CCc1c(-c2csc(N)n2)[nH]c(C)c1C(C)=O"
  Relation: "="
  IC50, µM: 76.2

###

Target: BAZ2A bromodomain (Homo sapiens)
Construct: made in house
Sequence (Q9UIF9 1793-1897 limits assumed): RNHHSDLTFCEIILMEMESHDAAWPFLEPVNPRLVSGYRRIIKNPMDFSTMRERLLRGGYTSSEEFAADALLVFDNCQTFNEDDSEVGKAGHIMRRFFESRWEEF
Experiment: AlphaScreen competition binding assay (BAZ2A bromodomain binding to acetylated peptide)
Settings: single dose, compound concentration 500 μM; read-out: % residual BAZ2A activity
Measured remaining binding at 500 µM, listed per entry for reference.
Metric: remaining binding at 500 µM (%)

- Compound: "NC(=O)c1cc(OC2CCNCC2)ccn1"
  Reported Result: 75
- Compound: "C/N=C(/NC)NC1CCN(c2cc(OC)cc(OC)c2)CC1"
  Reported Result: 48
- Compound: "NC1CCN(C(=O)c2ccc(=O)[nH]c2)CC1"
  Reported Result: 71
- Compound: "CCc1c(-c2csc(N=C(N)N)n2)[nH]c(C)c1C(C)=O"
  Reported Result: 5
- Compound: "CC(=O)N1CCN(c2ccc(NC(=N)N)cc2)CC1"
  Reported Result: 37
- Compound: "NC1CCCN(S(=O)(=O)c2cccc3cnccc23)C1 (centres unmarked)"
  Reported Result: 49
- Compound: "O=S(=O)(NC1CCNC1)c1cccc2cnccc12 (centres unmarked)"
  Reported Result: 44
- Compound: "NCc1ccc(N2CCNC(=O)C2)cc1"
  Reported Result: 32

###

target: BAZ2A bromodomain (Homo sapiens); assay: AlphaScreen competition binding assay (BAZ2A bromodomain binding to acetylated peptide); conditions: AlphaScreen dose-response
pIC50: −log10 of the molar value.
This section presents molecules with their documented pIC50 values.

- Molecule: "CCc1c(-c2csc(N3CCNCC3C(=O)NCCC(F)(F)F)n2)[nH]c(C)c1C(C)=O (centres unmarked)"
  Relation: "="
  pIC50: 4.96
- Molecule: "Cc1c[nH]nc1CN1CCN(c2nc(-c3[nH]c(C)c4c3CCCC4=O)cs2)CC1"
  Relation: "="
  pIC50: 4.90
- Molecule: "CCc1c(-c2csc(C3CCCN3C(C)=O)n2)[nH]c(C)c1C(C)=O (centres unmarked)"
  Relation: "="
  pIC50: 4.03
- Molecule: "CCc1c(-c2csc(C3CCCN3C(N)=O)n2)[nH]c(C)c1C(C)=O (centres unmarked)"
  Relation: "<"
  pIC50: 4.00
- Molecule: "CCc1c(-c2csc(C3(NC(C)=O)CCNC3)n2)[nH]c(C)c1C(C)=O (centres unmarked)"
  Relation: "="
  pIC50: 4.21
- Molecule: "CCc1c(-c2csc(N3CCN(Cc4c[nH]c5ncncc45)CC3)n2)[nH]c(C)c1C(C)=O"
  Relation: "="
  pIC50: 4.89
- Molecule: "CCc1c(-c2csc(N3CCNCC3)n2)[nH]c(C)c1C(N)=O"
  Relation: "<"
  pIC50: 4.00
- Molecule: "CCc1c(-c2csc(N3CCN(Cc4ccnn4CC(C)C)CC3)n2)[nH]c(C)c1C(C)=O"
  Relation: "="
  pIC50: 4.31

###

molecular target: BAZ2A bromodomain (Homo sapiens, UniProt Q9UIF9); assay: AlphaScreen competition binding assay (BAZ2A bromodomain binding to acetylated peptide); conditions: AlphaScreen dose-response
Metric: IC50 (µM)

- Compound: "CCc1c(-c2csc(CN3CCOCC3)n2)[nH]c(C)c1C(C)=O [Compound 59]"
  Metric: "IC50"
  Relation: "="
  Reported Result: 74.2
- Compound: "CCc1c(-c2csc(-c3cnc[nH]3)n2)[nH]c(C)c1C(C)=O [Compound 72]"
  Metric: "IC50"
  Relation: "="
  Reported Result: 54.6
- Compound: "CCc1c(-c2csc(N3CCNCC3C(=O)NCCCCO)n2)[nH]c(C)c1C(C)=O (stereo not drawn) [Compound 109]"
  Metric: "IC50"
  Relation: "="
  Reported Result: 31.3
- Compound: "CC(=O)c1c(C)[nH]c(-c2csc(CN3C(=O)CNC3=O)n2)c1C [Compound 65]"
  Metric: "IC50"
  Relation: "="
  Reported Result: 54
- Compound: "Cc1[nH]c(-c2csc(NC(=N)N)n2)c2c1C(=O)CCC2 [Compound 83]"
  Metric: "IC50"
  Relation: "="
  Reported Result: 11
- Compound: "Cc1[nH]c(-c2csc(-c3cc[nH]n3)n2)c2c1C(=O)CCC2 [Compound 69]"
  Metric: "IC50"
  Relation: "="
  Reported Result: 74.3
- Compound: "C/N=C(/NC)NC1CCN(c2cc(OC)cc(OC)c2)CC1 [Compound 11]"
  Metric: "IC50"
  Relation: ">"
  Reported Result: 200
- Compound: "CCc1c(-c2csc(CN3CCN(C(C)=O)CC3)n2)[nH]c(C)c1C(C)=O [Compound 64]"
  Metric: "IC50"
  Relation: "="
  Reported Result: 75.7
- Compound: "Cc1[nH]c(-c2csc(N3CCNCC3)n2)c2c1C(=O)CCC2(C)C [Compound 82]"
  Metric: "IC50"
  Relation: "="
  Reported Result: 44.6

###

Target: BAZ2A bromodomain (Homo sapiens, UniProt Q9UIF9)
Sequence (Q9UIF9 1793-1897 limits assumed): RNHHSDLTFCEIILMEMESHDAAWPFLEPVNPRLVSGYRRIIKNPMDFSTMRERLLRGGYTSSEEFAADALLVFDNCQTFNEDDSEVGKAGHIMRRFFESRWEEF
Assay: AlphaScreen competition binding assay (BAZ2A bromodomain binding to acetylated peptide)
Settings: AlphaScreen dose-response
Category | rule: reported IC50 within range, see lower band: < 30 µM; central band: ≥ 30 µM and < 50 µM; upper band: ≥ 50 µM

- Compound: "CCc1c(-c2csc(N3CCNCC3C(=O)NCC(C)(C)CC)n2)[nH]c(C)c1C(C)=O (stereo not shown) [Compound 108]"
  Group Label: "central band"
- Compound: "CCc1c(-c2csc(N3CCNCC3C(=O)NCCc3cc4ccccc4[nH]3)n2)[nH]c(C)c1C(C)=O (stereo not shown) [Compound 105]"
  Group Label: "central band"
- Compound: "CCc1c(-c2csc(CN3CCNCC3)n2)[nH]c(C)c1C(C)=O [Compound 61]"
  Group Label: "upper band"
- Compound: "CCc1c(-c2csc(C3CCNC3)n2)[nH]c(C)c1C(C)=O (stereo not shown) [Compound 53]"
  Group Label: "upper band"
- Compound: "Cc1[nH]c(-c2csc(N3CCNCC3)n2)c2c1C(=O)CCC2 [Compound 80]"
  Group Label: "lower band"
- Compound: "CCc1c(-c2csc(C3CCNCC3)n2)[nH]c(C)c1C(C)=O [Compound 48]"
  Group Label: "upper band"
- Compound: "CCc1c(-c2csc(N3CCNCC3C(=O)NC(CO)CO)n2)[nH]c(C)c1C(C)=O (stereo not shown) [Compound 112]"
  Group Label: "central band"
- Compound: "CCc1c(-c2csc(CCNC)n2)[nH]c(C)c1C(C)=O [Compound 45]"
  Group Label: "upper band"
- Compound: "CCc1c(-c2csc(N3CCN(Cc4n[nH]cc4C)CC3)n2)[nH]c(C)c1C(C)=O [Compound 92]"
  Group Label: "lower band"
- Compound: "CCc1c(-c2csc(CN3CCC(N)CC3)n2)[nH]c(C)c1C(C)=O [Compound 63]"
  Group Label: "upper band"
- Compound: "CCc1c(-c2csc(CCCN)n2)[nH]c(C)c1C(C)=O [Compound 44]"
  Group Label: "upper band"
- Compound: "CCc1c(-c2csc(C3CCN(C(C)=O)C3)n2)[nH]c(C)c1C(C)=O (stereo not shown) [Compound 55]"
  Group Label: "upper band"
- Compound: "CCc1c(-c2csc(N3CCN(Cc4cn(CC(N)=O)nn4)CC3)n2)[nH]c(C)c1C(C)=O [Compound 88]"
  Group Label: "central band"
- Compound: "CCc1c(-c2csc(N3CCNCC3C(=O)NCC(N)=O)n2)[nH]c(C)c1C(C)=O (stereo not shown) [Compound 110]"
  Group Label: "lower band"
- Compound: "CCc1c(-c2csc(C3(N)CCCC3)n2)[nH]c(C)c1C(C)=O [Compound 66]"
  Group Label: "upper band"
- Compound: "CCc1c(-c2csc(C3CCN(C(N)=O)C3)n2)[nH]c(C)c1C(C)=O (stereo not shown) [Compound 56]"
  Group Label: "upper band"
- Compound: "O=S(=O)(NC1CCNC1)c1cccc2cnccc12 (stereo not shown) [Compound 9]"
  Group Label: "upper band"
- Compound: "CCc1c(-c2csc(C3CCCNC3)n2)[nH]c(C)c1C(C)=O (stereo not shown) [Compound 49]"
  Group Label: "central band"
- Compound: "CCc1c(-c2csc(N3CCNCC3C(=O)NCC(C)(C)C)n2)[nH]c(C)c1C(C)=O (stereo not shown) [Compound 113]"
  Group Label: "lower band"
- Compound: "CCc1c(-c2csc(N3CCNCC3C(=O)NCC(F)(F)F)n2)[nH]c(C)c1C(C)=O (stereo not shown) [Compound 107]"
  Group Label: "lower band"
- Compound: "CCc1c(-c2csc(N3CCN(CC4CCN(CC)CC4)CC3)n2)[nH]c(C)c1C(C)=O [Compound 87]"
  Group Label: "central band"
- Compound: "NC1CCCN(S(=O)(=O)c2cccc3cnccc23)C1 (stereo not shown) [Compound 8]"
  Group Label: "upper band"
- Compound: "CCc1c(-c2csc(N3CCNCC3C(=O)NC3(c4ncccc4F)CC3)n2)[nH]c(C)c1C(C)=O (stereo not shown) [Compound 100]"
  Group Label: "central band"
- Compound: "CCc1c(-c2csc(N3CCN(Cc4cc5n(n4)CCC5)CC3)n2)[nH]c(C)c1C(C)=O [Compound 86]"
  Group Label: "upper band"
- Compound: "CC(=O)c1c(C)[nH]c(-c2csc(N3CCNCC3)n2)c1CCC(C)C [Compound 79]"
  Group Label: "lower band"
- Compound: "CCc1c(-c2csc(N3CCN(Cc4conc4COC)CC3)n2)[nH]c(C)c1C(C)=O [Compound 96]"
  Group Label: "upper band"
- Compound: "CC(=O)c1c(C)[nH]c(-c2csc(N3CCNCC3)n2)c1C1CCCC1 [Compound 78]"
  Group Label: "central band"
- Compound: "CCc1c(-c2csc(N=C(N)N)n2)[nH]c(C)c1C(C)=O [Compound 25]"
  Group Label: "central band"
- Compound: "CCc1c(-c2csc(N3CCNCC3)n2)[nH]c(C)c1C(C)=O [Compound 47]"
  Group Label: "central band"
- Compound: "CC(=O)N1CCN(c2ccc(NC(=N)N)cc2)CC1 [Compound 18]"
  Group Label: "upper band"
- Compound: "Cc1[nH]c(-c2csc(N3CCNCC3)n2)c2c1C(=O)CC(C)(C)C2 [Compound 81]"
  Group Label: "lower band"
- Compound: "CCc1c(-c2csc(NC3CCNCC3)n2)[nH]c(C)c1C(C)=O [Compound 62]"
  Group Label: "upper band"
- Compound: "CCc1c(-c2csc(C3CCCCN3)n2)[nH]c(C)c1C(C)=O (stereo not shown) [Compound 50]"
  Group Label: "upper band"
- Compound: "CCc1c(-c2csc(N3CCNCC3C(=O)NC3(Cc4ccccc4Br)CC3)n2)[nH]c(C)c1C(C)=O (stereo not shown) [Compound 102]"
  Group Label: "lower band"
- Compound: "NCc1ccc(N2CCNC(=O)C2)cc1 [Compound 14]"
  Group Label: "upper band"
- Compound: "Cc1[nH]c(-c2csc(N3CCN(Cc4c[nH]c5ncncc45)CC3)n2)c2c1C(=O)CCC2 [Compound 99]"
  Group Label: "lower band"

Entry source: paper PMC9465710
